Just for reference, patent US20250263390A1 is where these values come from.

# MEASURED TARGET: ERα (Homo sapiens)
# Construct: host or cells: MCF7
# Sequence (P03372 whole entry): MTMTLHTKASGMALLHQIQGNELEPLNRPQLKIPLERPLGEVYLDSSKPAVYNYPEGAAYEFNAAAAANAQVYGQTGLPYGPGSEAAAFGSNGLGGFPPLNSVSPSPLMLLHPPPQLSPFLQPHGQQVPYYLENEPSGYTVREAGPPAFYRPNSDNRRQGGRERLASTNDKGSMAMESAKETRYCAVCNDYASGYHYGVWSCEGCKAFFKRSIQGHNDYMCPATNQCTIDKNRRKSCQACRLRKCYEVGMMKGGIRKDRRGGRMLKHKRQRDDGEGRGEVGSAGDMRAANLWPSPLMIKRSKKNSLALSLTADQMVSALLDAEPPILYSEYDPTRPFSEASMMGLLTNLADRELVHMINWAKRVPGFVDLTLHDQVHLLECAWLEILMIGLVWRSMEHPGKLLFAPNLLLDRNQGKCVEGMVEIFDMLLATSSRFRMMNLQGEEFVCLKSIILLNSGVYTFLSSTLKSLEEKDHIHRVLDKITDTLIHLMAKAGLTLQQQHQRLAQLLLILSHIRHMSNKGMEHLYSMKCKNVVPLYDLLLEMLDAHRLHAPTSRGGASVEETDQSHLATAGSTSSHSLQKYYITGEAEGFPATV
# ASSAY INFO: Estrogen receptor degradation activity: breast cancer cell ERα in cell western assay
# Assay type: cell-based
# PARTICULARS: MCF7 cells, 4 hours, relative to fulvestrant 0.1 μM positive control
MEASURED PARAMETER: % Degradation At 0.3 μM

Consider the worked cases shown below.
% Degradation At 0.3 μM lookup needed for CCc1cccc(C2=C(c3ccc(CC4CN(CCCF)C4)cc3)c3ccc(C(=O)O)cc3CCC2)c1C(F)(F)F [Compound 68] , thanks.
92%

Same question for O=C(O)c1ccc2c(c1)CCCC(c1c(Cl)cccc1OC(F)(F)F)=C2c1ccc(CC2CN(CCCF)C2)cc1 [Compound 50] please.
91%

Same question for Cc1ccc(C(F)F)c(C2=C(c3ccc(CC4CN(CCCF)C4)cc3)c3ccc(C(=O)O)cc3CCC2)c1 [Compound 23] please.
91%

Same question for O=C(O)c1ccc2c(c1)CCCC(c1ccc(C(F)(F)F)cc1C(F)(F)F)=C2c1ccc(CC2CN(CCCF)C2)cc1 [Compound 39] please.
95%

Same question for Cc1cccc(C(F)(F)F)c1C1=C(c2ccc(CC3CN(CCCF)C3)cc2)c2ccc(C(=O)O)cc2CCC1 [Compound 33] please.
91%

Same question for Cc1ccc(C2=C(c3ccc(CC4CN(CCCF)C4)cc3)c3ccc(C(=O)O)cc3CCC2)cc1O [Compound 56] please.
95%

Same question for Cc1c(OC(F)(F)F)cccc1C1=C(c2ccc(CC3CN(CCCF)C3)cc2)c2ccc(C(=O)O)cc2CCC1 [Compound 6] please.
90%

Same question for COc1ccc(C(F)(F)F)c(C2=C(c3ccc(CC4CN(CCCF)C4)cc3)c3ccc(C(=O)O)cc3CCC2)c1 [Compound 35] please.
91%

Same question for O=C(O)C(F)(F)F.O=C(O)c1ccc2c(c1)CCCC(CCCO)=C2c1ccc(CC2CN(CCCF)C2)cc1 [Compound 15] please.
100%

Same question for Cc1cc(C2=C(c3ccc(CC4CN(CCCF)C4)cc3)c3ccc(C(=O)O)cc3CCC2)c(C)cc1F [Compound 31] please.
92%

Next:
% Degradation At 0.3 μM lookup needed for O=C(O)c1ccc2c(c1)CCCC(c1cccc3c1CCCO3)=C2c1ccc(CC2CN(CCCF)C2)cc1 [Compound 12] , thanks.
86%

Same question for O=C(O)c1ccc2c(c1)CCCC(c1cccc3c1OCCC3)=C2c1ccc(CC2CN(CCCF)C2)cc1 [Compound 9] please.
88%

Same question for Cc1ccc(F)c(C)c1C1=C(c2ccc(CC3CN(CCCF)C3)cc2)c2ccc(C(=O)O)cc2CCC1 [Compound 73] please.
84%

Same question for Cc1ccc(C(F)(F)F)cc1C1=C(c2ccc(CC3CN(CCCF)C3)cc2)c2ccc(C(=O)O)cc2CCC1 [Compound 18] please.
78%

Same question for Cc1cccc(Cl)c1C1=C(c2ccc(CC3CN(CCCF)C3)cc2)c2ccc(C(=O)O)cc2CCC1.Cl [Compound 40] please.
91%

Same question for O=C(O)c1ccc2c(c1)CCCC(C1CC(CO)C1)=C2c1ccc(CC2CN(CCCF)C2)cc1 (centres unmarked) [Compound 21] please.
100%

Same question for O=C(O)c1ccc2c(c1)CCCC(C1CCC(CO)C1)=C2c1ccc(CC2CN(CCCF)C2)cc1 (centres unmarked) [Compound 3] please.
77%
